Conditions: in ethanol, 318.15 K
OUTCOME MEASURE: solubility (mole fraction)
One number for each entry.

In: Give recorded solubility (mole fraction). Cl.N/N=C(\N)NN
Out: 0.00158

* * *

Conditions: in methanol, 323.15 K
OUTCOME MEASURE: solubility (mole fraction)

In: Give recorded solubility (mole fraction). Cl.N/N=C(\N)NN
Out: 0.0175

* * *

Settings: in water, 303.15 K
OUTCOME MEASURE: solubility (mole fraction)

In: Give recorded solubility (mole fraction). Cl.N/N=C(\N)NN
Out: 0.101

* * *

Conditions: in ethyl acetate, 288.15 K
OUTCOME MEASURE: solubility (mole fraction)
Numbers only.

In: Give recorded solubility (mole fraction). Cl.N/N=C(\N)NN
Out: 4.16e-05

* * *

Details: in n-butanol, 308.15 K
OUTCOME MEASURE: solubility (mole fraction)
Numbers only.

In: Give recorded solubility (mole fraction). Cl.N/N=C(\N)NN
Out: 0.000259

* * *

Details: in THF, 283.15 K
OUTCOME MEASURE: solubility (mole fraction)
Answers are plain numbers.

In: Give recorded solubility (mole fraction). Cl.N/N=C(\N)NN
Out: 3.7e-05

* * *

Details: in acetonitrile, 318.15 K
OUTCOME MEASURE: solubility (mole fraction)
Give bare numbers.

In: Give recorded solubility (mole fraction). Cl.N/N=C(\N)NN
Out: 9.96e-05

* * *

Details: in water, 293.15 K
OUTCOME MEASURE: solubility (mole fraction)
Answers are plain numbers.

In: Give recorded solubility (mole fraction). Cl.N/N=C(\N)NN
Out: 0.0778
